System: 292921-168-R-J2-PDC KRAS tumor spheroid viability
Assay: Anticancer human tumor 292921-168-R-J2-PDC patient-derived pancreatic carcinoma cell line growth inhibition [KRAS2]
Conditions: second compound 0.316 µM; first compound 0.1 µM; stronger effect = lower value; spheroids with HUVEC and MSC
property name: viability, T/C (%)
Give bare numbers, in %.

See these solved cases before continuing.
CC(C)n1nc(-c2ccc3oc(N)nc3c2)c2c(N)ncnc21 + C=CC(=O)N1CCN(c2nc(OCC3CCCN3C)nc3c2CCN(c2cccc4cccc(C)c24)C3)CC1CC#N: 18.5
CC1(C)CCC(CN2CCN(c3ccc(C(=O)NS(=O)(=O)c4ccc(NCC5CCOCC5)c([N+](=O)[O-])c4)c(Oc4cnc5[nH]ccc5c4)c3)CC2)=C(c2ccc(Cl)cc2)C1 + C=CC(=O)N1CCN(c2nc(OCC3CCCN3C)nc3c2CCN(c2cccc4cccc(C)c24)C3)CC1CC#N: 98.4
O=C(c1cc(Cc2n[nH]c(=O)c3ccccc23)ccc1F)N1CCN(C(=O)C2CC2)CC1 + C=CC(=O)N1CCN(c2nc(=O)n(-c3c(C)ccnc3C(C)C)c3nc(-c4c(O)cccc4F)c(F)cc23)C(C)C1: 82.1
COc1cc2nccc(Oc3ccc(NC(=O)C4(C(=O)Nc5ccc(F)cc5)CC4)cc3)c2cc1OC + C=CC(=O)N1CCN(c2nc(OCC3CCCN3C)nc3c2CCN(c2cccc4cccc(C)c24)C3)CC1CC#N: 83.2

*Q* Requested read-out: viability, T/C. Entry: CC(C)NCC(C(=O)N1CCN(c2ncnc3c2C(C)CC3O)CC1)c1ccc(Cl)cc1 (stereo not given) + C=CC(=O)N1CCN(c2nc(OCC3CCCN3C)nc3c2CCN(c2cccc4cccc(C)c24)C3)CC1CC#N
*A* 68.5

----------
For each record, write down the corresponding viability, T/C.
System: 292921-168-R-J2-PDC KRAS tumor spheroid viability
Test: Anticancer human tumor 292921-168-R-J2-PDC cell line growth inhibition [KRAS2];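 note: drug exposure lasted seven days after spheroids formed for three days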;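 for viability, T/C: percent of DMSO vehicle control viability which is 100%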
Conditions: second compound 0.1 µM; first compound 10 µM; stronger effect = lower value; spheroids with HUVEC and MSC

See these solved cases before continuing.
CC1(C)CCC(CN2CCN(c3ccc(C(=O)NS(=O)(=O)c4ccc(NCC5CCOCC5)c([N+](=O)[O-])c4)c(Oc4cnc5[nH]ccc5c4)c3)CC2)=C(c2ccc(Cl)cc2)C1 + CC1OCC2(CCN(c3cnc(Sc4ccnc(N)c4Cl)c(N)n3)CC2)C1N: 11.7%
O=C(c1cc(Cc2n[nH]c(=O)c3ccccc23)ccc1F)N1CCN(C(=O)C2CC2)CC1 + COc1cc2nc(C)nc(NC(C)c3cc(N)cc(C(F)(F)F)c3)c2cc1OC1CCOC1: 52.1%
Cn1nccc1Nc1nccc(-c2cc3c(s2)C(C)(C)N(CCN2CCOCC2)C3=O)n1 + CNCc1ccccc1-c1csc(C(C)Nc2nc(C)nc3cc(OC)c(OC)cc23)c1: 10.2%
CCNC(=O)CC1N=C(c2ccc(Cl)cc2)c2cc(OC)ccc2-n2c(C)nnc21 (stereo not given) + C=CC(=O)N1CCN(c2nc(=O)n(-c3c(C)ccnc3C(C)C)c3nc(-c4c(O)cccc4F)c(F)cc23)C(C)C1: 43.4%

*Q* Requested read-out: viability, T/C. Entry: COC(=O)c1ccc2c(C(=Nc3ccc(N(C)C(=O)CN4CCN(C)CC4)cc3)c3ccccc3)c(O)[nH]c2c1 + CNCc1ccccc1-c1csc(C(C)Nc2nc(C)nc3cc(OC)c(OC)cc23)c1
*A* 0.5%

----------
For each record, write down the corresponding viability, T/C.
System: 292921-168-R-J2-PDC KRAS tumor spheroid viability
Assay: Anticancer human tumor 292921-168-R-J2-PDC cell line growth inhibition [KRAS2];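 note: drug exposure lasted seven days after spheroids formed for three days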;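 for viability, T/C: percent of DMSO vehicle control viability which is 100%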
Details: second compound 0.316 µM; first compound 0.1 µM; stronger effect = lower value; spheroids with HUVEC and MSC
Numbers only, in %.

See these solved cases before continuing.
Cn1ncnc1[C@H]1c2n[nH]c(=O)c3cc(F)cc(c23)N[C@@H]1c1ccc(F)cc1 + C=CC(=O)N1CCN(c2nc(=O)n(-c3c(C)ccnc3C(C)C)c3nc(-c4c(O)cccc4F)c(F)cc23)C(C)C1: 88.4
COc1cc2nccc(Oc3ccc(NC(=O)C4(C(=O)Nc5ccc(F)cc5)CC4)cc3)c2cc1OC + C=CC(=O)N1CCN(c2nc(=O)n(-c3c(C)ccnc3C(C)C)c3nc(-c4c(O)cccc4F)c(F)cc23)C(C)C1: 112

Read the next record carefully.
*Q* Requested read-out: viability, T/C. Entry: Cn1nccc1Nc1nccc(-c2cc3c(s2)C(C)(C)N(CCN2CCOCC2)C3=O)n1 + COc1cc2nc(C)nc(NC(C)c3cc(N)cc(C(F)(F)F)c3)c2cc1OC1CCOC1
*A* 32.1

----------
Test system: 292921-168-R-J2-PDC KRAS tumor spheroid viability
Experiment: Anticancer human tumor 292921-168-R-J2-PDC cell line growth inhibition [KRAS2];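 note: drug exposure lasted seven days after spheroids formed for three days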;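 for viability, T/C: percent of DMSO vehicle control viability which is 100%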
Details: second compound 0.316 µM; first compound 0.1 µM; stronger effect = lower value; spheroids with HUVEC and MSC
property name: viability, T/C (%)
One number for each entry, in %.

See these solved cases before continuing.
CC(C)n1nc(-c2ccc3oc(N)nc3c2)c2c(N)ncnc21 + COc1cc2nc(C)nc(NC(C)c3cc(N)cc(C(F)(F)F)c3)c2cc1OC1CCOC1: 24.1
O=C(c1cc(Cc2n[nH]c(=O)c3ccccc23)ccc1F)N1CCN(C(=O)C2CC2)CC1 + COc1cc2nc(C)nc(NC(C)c3cc(N)cc(C(F)(F)F)c3)c2cc1OC1CCOC1: 105
CC1COCCN1c1cc(-c2ccnn2C)c2ccnc(-c3ccn[nH]3)c2n1 (stereo not given) + C=CC(=O)N1CCN(c2nc(=O)n(-c3c(C)ccnc3C(C)C)c3nc(-c4c(O)cccc4F)c(F)cc23)C(C)C1: 13.5

Give viability, T/C for each listed item.
1. Cn1nccc1Nc1nccc(-c2cc3c(s2)C(C)(C)N(CCN2CCOCC2)C3=O)n1 + C=CC(=O)N1CCN(c2nc(OCC3CCCN3C)nc3c2CCN(c2cccc4cccc(C)c24)C3)CC1CC#N
2. CC(=O)OC12COC1CC(O)C1(C)C(=O)C(O)C3=C(C)C(OC(=O)C(O)C(NC(=O)OC(C)(C)C)c4ccccc4)CC(O)(C(OC(=O)c4ccccc4)C21)C3(C)C (stereo not given) + C=CC(=O)N1CCN(c2nc(OCC3CCCN3C)nc3c2CCN(c2cccc4cccc(C)c24)C3)CC1CC#N
3. CN(C)C/C=C/C(=O)Nc1cc2c(Nc3ccc(F)c(Cl)c3)ncnc2cc1O[C@H]1CCOC1 + CNCc1ccccc1-c1csc(C(C)Nc2nc(C)nc3cc(OC)c(OC)cc23)c1
4. COc1cc(Nc2ncc3c(n2)-c2ccc(Cl)cc2C(c2c(F)cccc2OC)=NC3)ccc1C(=O)O + C=CC(=O)N1CCN(c2nc(=O)n(-c3c(C)ccnc3C(C)C)c3nc(-c4c(O)cccc4F)c(F)cc23)C(C)C1

*A*
38.6
8.56
55
33.3

----------
Test system: 292921-168-R-J2-PDC KRAS tumor spheroid viability
Test: Anticancer human tumor 292921-168-R-J2-PDC cell line growth inhibition [KRAS2];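 note: drug exposure lasted seven days after spheroids formed for three days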;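 for viability, T/C: percent of DMSO vehicle control viability which is 100%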
Conditions: second compound 0.0316 µM; first compound 10 µM; stronger effect = lower value; spheroids with HUVEC and MSC
For each record, write down the corresponding viability, T/C.
Answers are plain numbers, in %.

See these solved cases before continuing.
CC1OCC2(CCN(c3cnc(Sc4ccnc(N)c4Cl)c(N)n3)CC2)C1N (stereo not drawn) + C=CC(=O)N1CCN(c2nc(OCC3CCCN3C)nc3c2CCN(c2cccc4cccc(C)c24)C3)CC1CC#N: 28.4
COC(=O)c1ccc2c(C(=Nc3ccc(N(C)C(=O)CN4CCN(C)CC4)cc3)c3ccccc3)c(O)[nH]c2c1 + C=CC(=O)N1CCN(c2nc(OCC3CCCN3C)nc3c2CCN(c2cccc4cccc(C)c24)C3)CC1CC#N: 0.05

Read the next record carefully.
*Q* Requested read-out: viability, T/C. Entry: COc1cc(Nc2ncc3c(n2)-c2ccc(Cl)cc2C(c2c(F)cccc2OC)=NC3)ccc1C(=O)O + C=CC(=O)N1CCN(c2nc(OCC3CCCN3C)nc3c2CCN(c2cccc4cccc(C)c24)C3)CC1CC#N
*A* 17.1

----------
Tested on: 292921-168-R-J2-PDC KRAS tumor spheroid viability
Assay: Anticancer human tumor 292921-168-R-J2-PDC cell line growth inhibition [KRAS2];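 note: drug exposure lasted seven days after spheroids formed for three days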
Conditions: curve of first compound; second compound 1 µM; spheroids with HUVEC and MSC
property name: IC50

COc1cc(Nc2ncc3c(n2)-c2ccc(Cl)cc2C(c2c(F)cccc2OC)=NC3)ccc1C(=O)O + C=CC(=O)N1CCN(c2nc(OCC3CCCN3C)nc3c2CCN(c2cccc4cccc(C)c24)C3)CC1CC#N: < 0.0316 µM
O=C(c1cc(Cc2n[nH]c(=O)c3ccccc23)ccc1F)N1CCN(C(=O)C2CC2)CC1 + C=CC(=O)N1CCN(c2nc(=O)n(-c3c(C)ccnc3C(C)C)c3nc(-c4c(O)cccc4F)c(F)cc23)C(C)C1: 6.67 µM
O=C(c1cc(Cc2n[nH]c(=O)c3ccccc23)ccc1F)N1CCN(C(=O)C2CC2)CC1 + COc1cc2nc(C)nc(NC(C)c3cc(N)cc(C(F)(F)F)c3)c2cc1OC1CCOC1: 9.77 µM

Give IC50 for each listed item.
1. O=C(c1cc(Cc2n[nH]c(=O)c3ccccc23)ccc1F)N1CCN(C(=O)C2CC2)CC1 + C=CC(=O)N1CCN(c2nc(OCC3CCCN3C)nc3c2CCN(c2cccc4cccc(C)c24)C3)CC1CC#N
2. CCN1CCN(Cc2ccc(Nc3ncc(F)c(-c4cc(F)c5nc(C)n(C(C)C)c5c4)n3)nc2)CC1 + C=CC(=O)N1CCN(c2nc(=O)n(-c3c(C)ccnc3C(C)C)c3nc(-c4c(O)cccc4F)c(F)cc23)C(C)C1

*A*
1: < 0.0316 µM; 2: 0.108 µM
